system.tested: SIK2 (Homo sapiens, UniProt Q9H0K1)
Sequence (Q9H0K1 whole entry, species assumed): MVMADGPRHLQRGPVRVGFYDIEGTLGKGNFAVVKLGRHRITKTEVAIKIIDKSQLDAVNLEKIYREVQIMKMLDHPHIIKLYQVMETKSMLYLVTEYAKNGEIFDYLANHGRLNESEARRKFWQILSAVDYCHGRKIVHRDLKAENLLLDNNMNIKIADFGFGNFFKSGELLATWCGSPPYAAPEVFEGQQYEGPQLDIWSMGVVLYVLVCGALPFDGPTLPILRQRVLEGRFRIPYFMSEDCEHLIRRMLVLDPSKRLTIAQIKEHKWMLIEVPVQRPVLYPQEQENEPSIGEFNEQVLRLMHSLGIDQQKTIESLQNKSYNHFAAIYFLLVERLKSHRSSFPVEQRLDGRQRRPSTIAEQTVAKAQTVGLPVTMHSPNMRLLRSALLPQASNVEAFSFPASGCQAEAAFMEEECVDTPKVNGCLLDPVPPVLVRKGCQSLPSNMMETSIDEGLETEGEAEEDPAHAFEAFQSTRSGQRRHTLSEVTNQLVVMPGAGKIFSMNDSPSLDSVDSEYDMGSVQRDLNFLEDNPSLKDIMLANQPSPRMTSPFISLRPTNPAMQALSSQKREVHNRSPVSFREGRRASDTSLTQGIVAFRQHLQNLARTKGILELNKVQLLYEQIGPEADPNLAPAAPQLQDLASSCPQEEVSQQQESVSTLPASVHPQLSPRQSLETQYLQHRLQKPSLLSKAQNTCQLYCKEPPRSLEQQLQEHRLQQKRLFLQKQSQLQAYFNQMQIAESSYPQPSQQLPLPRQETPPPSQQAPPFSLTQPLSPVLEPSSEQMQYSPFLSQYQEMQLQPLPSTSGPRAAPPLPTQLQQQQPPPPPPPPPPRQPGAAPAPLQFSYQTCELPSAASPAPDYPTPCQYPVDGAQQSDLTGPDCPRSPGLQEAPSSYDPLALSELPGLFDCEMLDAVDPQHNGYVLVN
measurement.description: SIK2 Enzymatic Assay High Version 2 (High ATP)
Assay type: biochemical
conditions.used: enzyme 6 nM, 6 mM ATP and 400 μM HDAC5tide (each 2× final concentration); 30 minutes pre-incubation, 2 hours; ADP-Glo Max luminescence; read-out: SIK2 high ATP IC50 (μM) (Test Example 2)
Provide the recorded IC50 for the entries that follow.
Reply with just the number (in µM).

Prompt line: Reported IC50, compound Cc1cc(-c2ccn3nc(NC(=O)C4CC4)cc3c2)c(OCC2(F)CCN(C)C2)cn1 (single isomer, unassigned) [Example 449] : ____
Response line: 0.0472

Prompt line: Reported IC50, compound Cc1cc(-c2ccn3nc(Nc4cc(C)nc(C)n4)cc3c2)c(O[C@@H]2CCS(=O)(=O)N(C)C2)cn1 (single isomer, unassigned) [Example 354] : ____
Response line: 0.0322

Prompt line: Reported IC50, compound Cc1cc(-c2ccn3nc(Nc4cc(C)nc(C)n4)cc3c2)c(OC2CC(NS(C)(=O)=O)C2)cn1 (stereo not drawn) [Example 579] : ____
Response line: 0.0666

Prompt line: Reported IC50, compound Cc1cc(-c2ccn3nc(Nc4cnc5cc[nH]c5n4)cc3c2)c(OCC(C)(C)O)cn1 [Example 291] : ____
Response line: 0.00809

Prompt line: Reported IC50, compound COc1cc(Nc2cc3cc(-c4cc(C)ncc4OCC(C)(C)O)ccn3n2)ccc1C(=O)NC1CC1 [Example 643] : ____
Response line: 0.157
